Tested on: Meloidogyne javanica
experiment description: Nematicidal Activity against Meloidogyne javanica (root-knot nematode) assessed as death/paralysis of nematodes at 1 hr after immersion in test solution
Format: functional, organism-based
Quick reference: EC50 of the listed items.

molecule | EC50
CCCCCCCC/C=C/C=O | > 25 µg/mL
CCCCCCCCC=O [NONANAL] | > 50 µg/mL
CCCCC/C=C/C=C/C=O | 7.53 µg/mL
O=Cc1ccco1 [FURFURAL] | > 25 µg/mL
CCOP(=O)(SC(C)CC)N1CCSC1=O (configuration not stated) [FOSTHIAZATE] | > 25 µg/mL
CCCCCCC/C=C/C=O [TRANS-2-DECENAL] | 11.8 µg/mL
O=Cc1ccc(CO)o1 [AES-103] | > 25 µg/mL

Where do the numbers come from? From ChEMBL document CHEMBL3046908.
